Assay: GFR by iohexol plasma clearance in gentamycin-induced AKI dogs
Format: in vivo, dog
Conditions: hound-type mongrel, dog, plasma, iv, 150 mg/kg, GFR: Iohexol Plasma Clearance, Day 0; 150 mg/kg iohexol IV; individual dogs (repeat results for two dogs)
Description: EDTA-anticoagulated blood was collected at 0, 5, 10, 20, 30, 60, 180, 240 and 300 minutes post-injection, centrifuged within 3 hours, and stored at -20° C.
REPORTED METRIC: clearance (mL/min/kg)

- COMPOUND: "CC(=O)N(CC(O)CO)c1c(I)c(C(=O)NCC(O)CO)c(I)c(C(=O)NCC(O)CO)c1I (stereo not shown) [iohexol]"
  OBSERVED RESULT: 3.28
